# ASSAY_TEXT: NCI Yeast Anticancer Drug Screen. Data for the mlh1 rad18 strain (AID 175)
# PROTOCOL_CONDITIONS: S. cerevisiae mlh1 rad18 strain growth inhibition; at 50.0 µM
The panel holds about 79,000 compounds, 15% with a hit somewhere; the sample as a whole holds those more often. Calls of active or inactive are those of the source. Rule as the data show it: active = growth inhibition above about 70%; inactive = the rest.
Hi there, use one of these labels in your reply, thanks! active, inactive

### Prompt State the result this test recorded for `CC[C@H]1CN2CCc3cc(OC)c(OC)cc3[C@@H]2C[C@@H]1C[C@H]1NCCc2cc(OC)c(OC)cc21` .
### Response inactive

### Prompt How was CC(O)C(NC(=O)OCc1ccccc1)C(=O)OC(c1ccccc1)c1ccccc1 (stereo unspecified) classified in this test?
### Response active

### Prompt What classification did `COC(=O)/C=C/c1c2ccccc2cc2ccccc12` end up with in this test?
### Response active

### Prompt I'd appreciate the recorded outcome for `O=P(C(=S)Nc1ccccc1Cl)(c1ccccc1)c1ccccc1` from this test.
### Response active

### Prompt Hi, do you know how `C1=C(C2=C[P+](c3ccccc3)(c3ccccc3)C=C(c3ccccc3)O2)OC(c2ccccc2)=C[P+]1(c1ccccc1)c1ccccc1` came out in this test?
### Response inactive

### Prompt Please state the recorded outcome for this compound: `CCCCOC(=O)c1ccc(S(=O)(=O)c2ccc(C(=O)OCCCC)cc2)cc1`
### Response inactive

### Prompt Any idea what this test logged for COc1cc(C2c3cc4c(cc3[C@@H](Nc3cccc(O)c3)C3COC(=O)[C@H]23)OCO4)cc(OC)c1O (stereo partly specified) ?
### Response active

### Prompt So what was the verdict on `O=Cc1ccc2cc(Cl)ccc2n1` in this test?
### Response inactive

### Prompt Called result for `COc1cccc(/C=C/C(C)=O)c1OC`
### Response inactive

### Prompt Fill in: this test's call for `C#CC(C)(C)OC(C)=O` is ___
### Response active

### Prompt GET /call?item= `CC(C)OC(=S)SSSC(=S)OC(C)C` returns the recorded outcome of this test.
### Response active

---

# ASSAY_TEXT: NCI Yeast Anticancer Drug Screen. Data for the cln2 rad14 strain (AID 165)
# PROTOCOL_CONDITIONS: S. cerevisiae cln2 rad14 strain, at 5.0 µM (retest, dose inferred, filed as 0.5), hits give high values
Compounds without any hit were thinned out: in the full panel of roughly 79,000, 15% have a hit.
Please mark YES if the recorded growth inhibition is equal to or greater than 20%, and NO if it falls below.

### Prompt Determine whether measured growth inhibition meets or exceeds 20% for O=C1OC(C2OC(=O)C(=O)C2C(=O)c2ccc([N+](=O)[O-])cc2)C(C(=O)c2ccc([N+](=O)[O-])cc2)C1=O (stereo not given)
### Response NO

### Prompt Is reported growth inhibition greater than or equal to 20% here: CC12CC[C@@H](C(C)(C)O)C1[C@@H](O)CC1(C)C2CCC2[C@@]3(C)CC[C@H](O)C(C)(C)C3C(O)C[C@]21C (stereo not given in full)
### Response NO

### Prompt Decide: is the reported value of growth inhibition for `O=C(Nn1c(=O)c(=O)oc2ccccc21)C(F)(F)F` equal to or greater than 20%?
### Response NO

### Prompt hey, is growth inhibition for this one >= 20%? `CC(=O)c1cc(I)c(O)c2ncccc12`
### Response YES

### Prompt # check: growth inhibition of `Clc1nc2cc3nc(Cl)c(Cl)nc3cc2nc1Cl` is greater than or equal to 20%
### Response YES

Data origin: PubChem BioAssay (NCI)
